Every entry's value here was drawn from patent US5202315A.

System: Escherichia coli ATCC 10536
Mark T only when MIC stays strictly below 0.1 µg/mL. Values equal to the cut-off are F.

[
  {
    "compound": "CO/N=C(\\C(=O)NC1C(=O)N2C(C(=O)[O-])=C(CSc3nc(N)cc(N)[n+]3C)CSC12)c1nsc(N)n1 (stereo not shown)",
    "category": "F"
  },
  {
    "compound": "CCC[n+]1c(N)cc(N)nc1SCC1=C(C(=O)[O-])N2C(=O)C(NC(=O)/C(=N\\OCC)c3nsc(N)n3)C2SC1 (stereo not shown)",
    "category": "F"
  },
  {
    "compound": "CC[n+]1c(N)cc(N)nc1SCC1=C(C(=O)[O-])N2C(=O)C(NC(=O)/C(=N\\OCC(=O)O)c3csc(N)n3)C2SC1 (stereo not shown)",
    "category": "T"
  },
  {
    "compound": "C[n+]1c(N)cc(N)nc1SCC1=C(C(=O)[O-])N2C(=O)C(NC(=O)/C(=N\\OCC(=O)O)c3csc(N)n3)C2SC1 (stereo not shown)",
    "category": "T"
  },
  {
    "compound": "CC[n+]1c(SCC2=C(C(=O)[O-])N3C(=O)C(NC(=O)/C(=N\\OC(C)(C)C(=O)O)c4csc(N)n4)C3SC2)nc(N)c(C)c1N (stereo not shown)",
    "category": "F"
  },
  {
    "compound": "CC[n+]1c(N)cc(N)nc1SCC1=C(C(=O)[O-])N2C(=O)C(NC(=O)/C(=N\\OC)c3nsc(N)n3)C2SC1 (stereo not shown)",
    "category": "F"
  },
  {
    "compound": "CC(C)(O/N=C(\\C(=O)NC1C(=O)N2C(C(=O)[O-])=C(CSc3nc(N)cc(N)[n+]3-c3ccc(O)cc3)CSC12)c1csc(N)n1)C(=O)O (stereo not shown)",
    "category": "F"
  },
  {
    "compound": "CCO/N=C(\\C(=O)NC1C(=O)N2C(C(=O)[O-])=C(CSc3nc(N)cc(N)[n+]3C)CSC12)c1csc(N)n1 (stereo not shown)",
    "category": "F"
  },
  {
    "compound": "CCO/N=C(\\C(=O)NC1C(=O)N2C(C(=O)[O-])=C(CSc3nc(N)cc(N)[n+]3-c3ccc(Cl)cc3)CSC12)c1csc(N)n1 (stereo not shown)",
    "category": "F"
  },
  {
    "compound": "C=CCO/N=C(\\C(=O)NC1C(=O)N2C(C(=O)[O-])=C(CSc3nc(N)cc(N)[n+]3C)CSC12)c1csc(N)n1 (stereo not shown)",
    "category": "F"
  },
  {
    "compound": "CCCC[n+]1c(N)cc(N)nc1SCC1=C(C(=O)[O-])N2C(=O)C(NC(=O)/C(=N\\OC(C)(C)C(=O)O)c3nsc(N)n3)C2SC1 (stereo not shown)",
    "category": "F"
  },
  {
    "compound": "C#CCO/N=C(\\C(=O)NC1C(=O)N2C(C(=O)[O-])=C(CSc3nc(N)cc(N)[n+]3C)CSC12)c1csc(N)n1 (stereo not shown)",
    "category": "T"
  },
  {
    "compound": "CCO/N=C(\\C(=O)NC1C(=O)N2C(C(=O)[O-])=C(CSc3nc(N)cc(N)[n+]3N)CSC12)c1csc(N)n1 (stereo not shown)",
    "category": "T"
  }
]
